method description: [11C]GSK1034702 PET brain distribution and kinetics in anaesthetised baboons
Assay type: in vivo, Papio anubis
study conditions: female, baboon (Papio anubis), frontal cortex, intravenous, Frontal Ctx; Subject A Exam 1; baboon; read-out: Regional V T
parameter: Kp

# compound, value observed
data = [
    ("[11CH3]c1cc(F)c2[nH]c(=O)n(C3CCN(C4CCOCC4)CC3)c2c1 [[^11C]GSK1034702]", 3.92),
]

###

method description: [11C]GSK1034702 PET brain distribution and kinetics in healthy male humans
Assay type: in vivo
study conditions: human, cerebellum, po, Cerebellum, Subject 2 Scan 2 (post dose, 5 mg oral), read-out: V T

# compound, Kp
records = [
    ("[11CH3]c1cc(F)c2[nH]c(=O)n(C3CCN(C4CCOCC4)CC3)c2c1 [[^11C]GSK1034702]", 3.69),
]

###

method description: [11C]GSK1034702 PET brain distribution and kinetics in healthy male humans
Assay type: in vivo
study conditions: human, medial temporal lobe (MTL), intravenous, MTL, Subject 2 Scan 1 (baseline), read-out: V T

# compound, Kp
measured = [
    ("[11CH3]c1cc(F)c2[nH]c(=O)n(C3CCN(C4CCOCC4)CC3)c2c1 [[^11C]GSK1034702]", 13.3),
]

###

method description: [11C]GSK1034702 PET brain distribution and kinetics in healthy male humans
Type: in vivo
study conditions: human, white matter, po, White matter, Subject 2 Scan 2 (post dose, 5 mg oral), read-out: V T
parameter: Kp

# compound, value observed
measured = [
    ("[11CH3]c1cc(F)c2[nH]c(=O)n(C3CCN(C4CCOCC4)CC3)c2c1 [[^11C]GSK1034702]", 4.01),
]

###

method description: [11C]GSK1034702 PET brain distribution and kinetics in anaesthetised baboons
Format: in vivo, Papio anubis
study conditions: female, baboon (Papio anubis), striatum, intravenous, Striatum; Subject A Exam 1; baboon; read-out: Regional V T
parameter: Kp

# compound, parameter, value observed
measured = [
    ("[11CH3]c1cc(F)c2[nH]c(=O)n(C3CCN(C4CCOCC4)CC3)c2c1 [[^11C]GSK1034702]", "Kp", 3.86),
]

###

method description: plasma concentration after single 5-mg oral dose in humans
Assay type: in vivo
study conditions: human, Subject 3, 4.4 hours post dose, read-out: GSK1034702 plasma concentration at start of post-dose PET scan
parameter: concentration at 4.4 h

# compound, parameter, value observed
records = [
    ("Cc1cc(F)c2[nH]c(=O)n(C3CCN(C4CCOCC4)CC3)c2c1 [GSK1034702]", "concentration at 4.4 h", "0.0132 µg/mL"),
]

###

method description: [11C]GSK1034702 PET brain distribution and kinetics in anaesthetised baboons
Assay type: in vivo, Papio anubis
study conditions: both sexes, baboon (Papio anubis), cortex, intravenous, primate, as worded; read-out: VT measured in the primate cortex

# sample smiles, Kp
measured = [
    ("Cc1cc(F)c2[nH]c(=O)n(C3CCN(C4CCOCC4)CC3)c2c1", 4),
]

###

method description: [11C]GSK1034702 PET brain distribution and kinetics in anaesthetised baboons
Type: in vivo, Papio anubis
study conditions: male, baboon (Papio anubis), hippocampus, intravenous, Hippocampus; Subject B Exam 1; baboon; read-out: Regional V T

# compound, Kp
measured = [
    ("[11CH3]c1cc(F)c2[nH]c(=O)n(C3CCN(C4CCOCC4)CC3)c2c1 [[^11C]GSK1034702]", 3.52),
]
